Experiment summary: in vivo
Study conditions: ICR, mouse, inhaled or intranasal, 5 mg/kg
Reported metric: bioavailability (%)

In [3]: df
Out[3]:
                                 cpd_smiles  value_unit  value_reported
0  CNCc1ccc(-c2cc(=O)c3ccc4nc(C(F)(F)F)[nH]c4c3o2)cc1           %            34.3

----------
Experiment summary: in vivo
Study conditions: ICR, mouse
Reported metric: Kp

                                 cpd_smiles  value_reported
0  CNCc1ccc(-c2cc(=O)c3ccc4nc(C(F)(F)F)[nH]c4c3o2)cc1            ~0.1

----------
Experiment summary: Solubility (pH 7.4; PBS)
Assay type: physicochemical
Study conditions: aqueous buffer
Reported metric: solubility

                                 cpd_smiles  value_reported
0  CN(C)C(=O)c1ccc(-c2cc(=O)c3ccc4nc(C(F)(F)F)[nH]c4c3o2)cc1        > 100 µM
1  CNCc1ccc(-c2cc(=O)c3ccc4nc(C(F)(F)F)[nH]c4c3o2)cc1           50 µM
2  CNC(=O)c1ccc(-c2cc(=O)c3ccc4nc(C(F)(F)F)[nH]c4c3o2)cc1        > 100 µM

----------
Experiment summary: in vivo
Study conditions: ICR, mouse, inhaled or intranasal, 5 mg/kg
Reported metric: MRT (h)

>>> print(df.to_string())
                                 cpd_smiles  reported_metric  value_unit  value_reported
0  CNCc1ccc(-c2cc(=O)c3ccc4nc(C(F)(F)F)[nH]c4c3o2)cc1              MRT           h            2.11

----------
Experiment summary: Stability in microsomes (mouse)
Type: in vitro ADME
Study conditions: liver microsomes, read-out: Stability-Microsomes T1/2
Reported metric: half-life (h)

>>> print(df.to_string())
                                 cpd_smiles  value_unit  value_reported
0  CNCc1ccc(-c2cc(=O)c3ccc4nc(C(F)(F)F)[nH]c4c3o2)cc1           h            2.22

----------
Experiment summary: Stability in hepatocytes (human)
Assay type: in vitro ADME
Study conditions: hepatocytes, read-out: Stability-Hepatocytes CL
Reported metric: hepatocyte CLint

>>> print(df.to_string())
                                   compound        value_reported
0  CNC(=O)c1ccc(-c2cc(=O)c3ccc4nc(C(F)(F)F)[nH]c4c3o2)cc1 [#3]  < 3 µL/min/1e6 cells
1  CNCc1ccc(-c2cc(=O)c3ccc4nc(C(F)(F)F)[nH]c4c3o2)cc1 [#2]  < 3 µL/min/1e6 cells
2  CN(C)C(=O)c1ccc(-c2cc(=O)c3ccc4nc(C(F)(F)F)[nH]c4c3o2)cc1 [#4]  < 3 µL/min/1e6 cells

----------
Experiment summary: Stability in hepatocytes (mouse)
Assay type: in vitro ADME
Study conditions: hepatocytes, read-out: Stability-Hepatocytes CL
// values below are reported hepatocyte CLint
Reported metric: hepatocyte CLint

                                   compound   reported_metric        value_reported
0  CN(C)C(=O)c1ccc(-c2cc(=O)c3ccc4nc(C(F)(F)F)[nH]c4c3o2)cc1 [#4]  hepatocyte CLint  < 3 µL/min/1e6 cells
1  CNCc1ccc(-c2cc(=O)c3ccc4nc(C(F)(F)F)[nH]c4c3o2)cc1 [#2]  hepatocyte CLint  < 3 µL/min/1e6 cells
2  CNC(=O)c1ccc(-c2cc(=O)c3ccc4nc(C(F)(F)F)[nH]c4c3o2)cc1 [#3]  hepatocyte CLint  < 3 µL/min/1e6 cells
